TGI listing for selected compounds.
System: DU-145 prostate
Assay: NCI tumour cell line growth inhibition, 48 h

Sample answers from the record:
[[record]]
compound = "S=C1SC(=Nc2ccccc2)C(=Nc2ccccc2)N1c1ccccc1"
measured_quantity = "TGI"
value_measured = "> 100 µM"

[[record]]
compound = "CCOc1c(Br)cc(C2C(C(=O)OC)=CN(C)C=C2C(=O)OC)cc1OC"
measured_quantity = "TGI"
value_measured = "> 100 µM"

[[record]]
compound = "C=C1C(=O)O[C@@H]2[C@H]1C[C@@H](O)[C@H](C)[C@@](O)(C(=O)/C=C/C)[C@H]2OC(=O)C(C)CC (some centres undefined)"
measured_quantity = "TGI"
value_measured = "22.8 µM"

[[record]]
compound = "CN(C)c1ccc(N2Cc3ccccc3OC3=C2C(=O)c2c(O)ccc(O)c2C3=O)cn1"
measured_quantity = "TGI"
value_measured = "0.51 µM"

[[record]]
compound = "Cc1nc(C)c(C(=O)NNC(=O)Cc2ccccc2)cc1C(=O)NNC(=O)Cc1ccccc1"
measured_quantity = "TGI"
value_measured = "> 100 µM"

[[record]]
compound = "C/C=C/c1c(O)c(=O)c2c(OC)cc(OC)c3c4c(OC)cc(OC)c5c(=O)c(O)c(/C=C/C)c(c1c23)c54"
measured_quantity = "TGI"
value_measured = "23.4 µM"

[[record]]
compound = "CC(C)=CCC[C@H](C)[C@@H]1CC[C@]2(C)C3CC[C@]4(OC4(C)C)C(CCCO)[C@]3(C)CC[C@@]12C (some centres undefined)"
measured_quantity = "TGI"
value_measured = "> 100 µM"

[[record]]
compound = "O=c1cc(-c2ccccc2)[nH]c2cc(F)c(F)cc12"
measured_quantity = "TGI"
value_measured = "34.1 µM"

[[record]]
compound = "COC(=O)[C@@H]1CN(C(=O)c2ccccc2)C(=O)N1"
measured_quantity = "TGI"
value_measured = "> 100 µM"

[[record]]
compound = "COc1ccc(-c2[nH]c3ccccc3c2C=C(C#N)C#N)cc1"
measured_quantity = "TGI"
value_measured = "> 21.7 µM"


Note down TGI recorded for COc1c(C)c(C/C=C(\C)CCCCO[Si](C(C)C)(C(C)C)C(C)C)c(OC)c2ccccc12
> 100 µM

Note down TGI recorded for CCOC(=O)c1c(N)nn2c1cc1cccccc12
> 100 µM

Note down TGI recorded for COC1=C2CC(C)CC(OC)[C@@H](OC(=O)CCN)[C@H](C)/C=C(\C)C(OC(N)=O)C(OC)/C=C\C=C(/C)C(=O)NC(=CC1=O)C2=O (some centres undefined)
20.8 µM

Note down TGI recorded for COc1ccc(CN2C[C@H]3[C@@H](CC(=O)O[C@H]3C)CC2=O)cc1
> 100 µM

###

Tested on: SK-MEL-28 melanoma
Experiment: NCI tumour cell line growth inhibition, 48 h
TGI listing for selected molecules.

Sample answers from the record:
[[record]]
molecule = "CCCCCCC(=O)OC[n+]1ccc2c(C)c3[nH]c4ccccc4c3c(C)c2c1"
measured_quantity = "TGI"
value_measured = "3.1 µM"

[[record]]
molecule = "Cc1ccc(S(=O)(=O)N2CC3OC(C)(C)OC3C2CO)cc1 (stereo not given)"
measured_quantity = "TGI"
value_measured = "> 100 µM"

[[record]]
molecule = "COc1cc(C2=NN(C)C(c3ccc([N+](=O)[O-])o3)C2)cc(OC)c1OC (stereo not given)"
measured_quantity = "TGI"
value_measured = "> 100 µM"

[[record]]
molecule = "CCOC(C)C(/C=N/NC(N)=S)=NNC(N)=S (stereo not given)"
measured_quantity = "TGI"
value_measured = "> 100 µM"

[[record]]
molecule = "Cn1nccc1Nc1nccc(-c2cc3c(s2)C(C)(C)N(CCN2CCOCC2)C3=O)n1"
measured_quantity = "TGI"
value_measured = "> 100 µM"


Quote SK-MEL-28 melanoma TGI for entry CCOC(=O)/C(O)=C(/c1n[nH]c(=O)c2ccccc12)[N+](=O)[O-] .
> 100 µM

Quote SK-MEL-28 melanoma TGI for entry CC1=NN(c2ccccc2)C(=O)C1N=Nc1ccc([As](=O)(O)O)c(O)c1 (stereo not given) .
> 100 µM

Quote SK-MEL-28 melanoma TGI for entry Cc1cc2c(cc1Cl)SC1=CC(=O)N(c3ccccc3)C1=NS2(=O)=O .
40.9 µM

Quote SK-MEL-28 melanoma TGI for entry N#Cc1c(-c2ccc(Cl)cc2)cc(-c2ccc(Nc3ccnc4cc(C(F)(F)F)ccc34)cc2)[nH]c1=O .
> 34.6 µM

Quote SK-MEL-28 melanoma TGI for entry COc1cc(/C=C2\C[C@H]3[C@@H]4CC=C5C[C@@H](O)CC[C@]5(C)[C@H]4CC[C@]3(C)[C@H]2O)cc(OC)c1OC .
> 100 µM

###

TGI listing for selected compounds.
Tested on: CAKI-1 renal
Test: NCI tumour cell line growth inhibition, 48 h

Sample answers from the record:
[[record]]
compound = "COCc1nc2c(OC)cc(-c3nc4nc(N5CCN(C)CC5)ccc4[nH]3)c(OC)c2[nH]1"
subject_of_test = "CAKI-1 renal"
measured_quantity = "TGI"
value_measured = "> 100 µM"

[[record]]
compound = "Cn1cc(C2=C(c3cccc4ccccc34)C(=O)NC2=O)c2ccccc21"
subject_of_test = "CAKI-1 renal"
measured_quantity = "TGI"
value_measured = "> 22.9 µM"

[[record]]
compound = "O=S1(=O)OCCOS(=O)(=O)C1I"
subject_of_test = "CAKI-1 renal"
measured_quantity = "TGI"
value_measured = "> 100 µM"

[[record]]
compound = "CCC(=O)Nc1ccc(N=Cc2cccc(Oc3ccccc3)c2)cc1"
subject_of_test = "CAKI-1 renal"
measured_quantity = "TGI"
value_measured = "> 100 µM"

[[record]]
compound = "COc1cc(C(=O)c2ccc3c(c2)OCO3)cc(OC)c1OC"
subject_of_test = "CAKI-1 renal"
measured_quantity = "TGI"
value_measured = "> 27.4 µM"

[[record]]
compound = "Cc1ccccc1C1CC(=O)CC(c2ccccc2C)C12C(=O)NC(=O)NC2=O (configuration not stated)"
subject_of_test = "CAKI-1 renal"
measured_quantity = "TGI"
value_measured = "> 100 µM"

[[record]]
compound = "COC(=O)Nc1nc2ccc(Oc3ccc(NC(=O)Nc4cccc(C(=O)O)c4)cc3)cc2[nH]1"
subject_of_test = "CAKI-1 renal"
measured_quantity = "TGI"
value_measured = "> 25 µM"

[[record]]
compound = "O=c1cc(-c2ccccc2)[nH]c2cc(F)c(F)cc12"
subject_of_test = "CAKI-1 renal"
measured_quantity = "TGI"
value_measured = "> 100 µM"


Note down TGI recorded for C[n+]1c(/C=C\c2ccc(Cl)cc2)ccc2ccccc21
> 100 µM

Note down TGI recorded for COc1cc(OC)cc(Oc2nc3ccccc3nc2C(=O)O)c1
> 100 µM

Note down TGI recorded for COc1ccc(N2C(=O)C3c4[nH]c5ccc(OC)cc5c4C4CCC(C(C)(C)C)CC4C3C2=O)cc1 (configuration not stated)
> 100 µM

Note down TGI recorded for O=c1[nH]c(Nc2ccc(F)c(Cl)c2)nc2nc[nH]c12
> 100 µM

###

Tested on: 786-0 renal
Test: NCI tumour cell line growth inhibition, 48 h
measured.quantity: GI50

Sample answers from the record:
[[record]]
compound = "COC(=O)NC1C(C)OC(OC2C/C=C(/C)C3C=CC4C(OC5CC(OC6CC(O)C(OC7CC(O)C(OC)C(C)O7)C(C)O6)C(O)C(C)O5)C(C)CC(C)C4C3(C)/C(O)=C3\\C(=O)OC4(CC(C)C(CO)=CC4/C=C\\2C)C3=O)CC1(C)[N+](=O)[O-] (stereo not given)"
value_measured = "16.8 µM"

[[record]]
compound = "CC(=O)[CH-]C(=O)c1ccccc1.CC(=O)[CH-]C(=O)c1ccccc1.CC[O-].CC[O-].[Zr+4]"
value_measured = "> 100 µM"

[[record]]
compound = "COc1cc(NS(C)(=O)=O)ccc1Nc1c2ccc(Cl)cc2nc2c(OC)cccc12"
value_measured = "0.0526 µM"


Quote 786-0 renal GI50 for entry N#C/C(=C\c1ccc(-c2ccc(Cl)cc2)o1)C(=O)Nc1ncc(Cc2ccc(Cl)cc2)s1 .
1.77 µM

Quote 786-0 renal GI50 for entry Cn1cncc1[C@@](N)(c1ccc(Cl)cc1)c1ccc2c(c1)c(-c1cccc(Cl)c1)cc(=O)n2C .
3.08 µM

Quote 786-0 renal GI50 for entry C=C1C(=O)O[C@H]2[C@H]1CC/C(COC(=O)CCCCC(=O)OC/C1=C/CC[C@@]3(C)O[C@H]3[C@H]3OC(=O)C(=C)[C@@H]3CC1)=C\CC[C@@]1(C)O[C@@H]21 .
1.69 µM

Quote 786-0 renal GI50 for entry CC1=CC(=NC(=O)CBr)C=C/C1=N\S(=O)(=O)c1ccccc1 .
3.37 µM

Quote 786-0 renal GI50 for entry COc1cc(-c2nc(Nc3nc4ccccc4[nH]3)nc(N)c2C#N)cc(OC)c1OC .
20.2 µM

Quote 786-0 renal GI50 for entry CCOc1c(Br)cc(C2C(C(=O)OC)=CN(C)C=C2C(=O)OC)cc1OC .
> 100 µM

Quote 786-0 renal GI50 for entry CCOc1cccc(/C=N/NC(=O)c2ccc(Nc3ccnc(C(F)(F)F)c3)cc2)c1O .
0.951 µM
